# System: Cholecystokinin receptor type A (Homo sapiens); note: in other assays of this panel Not Active means under 50% inhibition at 10 µM
# Sequence (P32238 whole entry): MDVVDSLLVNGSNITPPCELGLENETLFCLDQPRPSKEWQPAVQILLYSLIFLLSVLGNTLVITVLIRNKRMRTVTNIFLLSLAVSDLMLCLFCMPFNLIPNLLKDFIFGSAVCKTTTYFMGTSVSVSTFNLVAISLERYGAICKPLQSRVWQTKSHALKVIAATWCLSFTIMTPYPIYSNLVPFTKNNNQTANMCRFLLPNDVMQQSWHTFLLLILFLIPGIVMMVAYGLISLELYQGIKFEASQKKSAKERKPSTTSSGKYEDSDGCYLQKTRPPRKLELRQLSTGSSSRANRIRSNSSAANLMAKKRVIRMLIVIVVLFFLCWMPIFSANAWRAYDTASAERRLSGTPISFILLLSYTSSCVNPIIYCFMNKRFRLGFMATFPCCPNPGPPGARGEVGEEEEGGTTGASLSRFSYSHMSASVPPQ
# Format: cell membranes, Membrane
# Recorded Conditions: 1321-n1
Value Type: IC50

// known answers, use as guide
>  <Compound>
COc1cc(C(=O)NS(=O)(=O)c2ccccc2C)ccc1Cc1cn(C)c2ccc(NC(=O)OC3CCCC3)cc12 [ZAFIRLUKAST]

>  <Value Type>
IC50

>  <Result>
Not Active

$$$$
>  <Compound>
O=C(O)c1cc(=O)c2c(OCC(O)COc3cccc4oc(C(=O)O)cc(=O)c34)cccc2o1 [CROMOLYN]

>  <Value Type>
IC50

>  <Result>
Not Active

$$$$
>  <Compound>
C[C@H](C(=O)O)c1cccc(C(=O)c2ccccc2)c1 [DEXKETOPROFEN]

>  <Value Type>
IC50

>  <Result>
Not Active

$$$$
>  <Compound>
CCCc1nn(C)c2c(=O)[nH]c(-c3cc(S(=O)(=O)N4CCN(C)CC4)ccc3OCC)nc12

>  <Value Type>
IC50

>  <Result>
Not Active

$$$$
>  <Compound>
CC(C)(C)NC[C@H](O)COc1nsnc1N1CCOCC1 [TIMOLOL]

>  <Value Type>
IC50

>  <Result>
Not Active

$$$$
>  <Compound>
OCCN1CCN(CCCN2c3ccccc3Sc3ccc(Cl)cc32)CC1 [PERPHENAZINE]

>  <Value Type>
IC50

>  <Result>
Not Active

$$$$
>  <Compound>
Nc1ccc(S(=O)(=O)Nc2nccs2)cc1 [SULFATHIAZOLE]

>  <Value Type>
IC50

>  <Result>
Not Active

$$$$
>  <Compound>
CC(=O)O[C@H]1C[C@@H]2CC[C@@H]3[C@H](CC[C@@]4(C)[C@H]3C[C@H]([N+]3(C)CCCCC3)[C@@H]4OC(C)=O)[C@@]2(C)C[C@@H]1N1CCCCC1.[Br-] [VECURONIUM BROMIDE]

>  <Value Type>
IC50

>  <Result>
Not Active

$$$$

Now look at this one.
q: Supply reported IC50 belonging to this compound: CCOC(=O)C1=C(C)NC(C)=C(C(=O)OC)C1c1cccc(Cl)c1Cl (centres undefined) [FELODIPINE]
a: Not Active

====

# Assay Method Text: DRUGMATRIX: beta-Lactamase enzyme inhibition (substrate: Nitrocefin)
# Set-up: species or system Bacillus cereus
# Recorded Conditions: Not Active = under 50% inhibition at 10 µM
Value Type: IC50

>  <Compound>
CCOC(=O)C1=C(C)NC(C)=C(C(=O)OC)C1c1cccc(Cl)c1Cl (stereo not drawn)

>  <IC50>
Not Active

$$$$
>  <Compound>
Cc1c(N(C)CS(=O)(=O)[O-])c(=O)n(-c2ccccc2)n1C.[Na+] [DIPYRONE SODIUM]

>  <IC50>
Not Active

$$$$
>  <Compound>
C#C[C@]1(O)CC[C@H]2[C@@H]3CCc4cc(O)ccc4[C@H]3CC[C@@]21C

>  <IC50>
Not Active

$$$$
>  <Compound>
CC(C)C[C@H]1C(=O)N2CCC[C@H]2[C@]2(O)O[C@](NC(=O)[C@@H]3C=C4c5cccc6[nH]c(Br)c(c56)C[C@H]4N(C)C3)(C(C)C)C(=O)N12

>  <IC50>
Not Active

$$$$

Can you give me IC50 for all of these, one by one?
1. CCC[C@@H]1C[C@@H](C(=O)N[C@@H]([C@H]2O[C@H](SC)[C@H](O)[C@@H](O)[C@H]2O)[C@H](C)Cl)N(C)C1
2. CC(C)(Oc1ccc(C2CC2(Cl)Cl)cc1)C(=O)O (stereo not drawn) [CIPROFIBRATE]
3. CCOC(=O)[C@H](CCc1ccccc1)N[C@@H](C)C(=O)N1CCC[C@H]1C(=O)O
4. C=C(CC)C(=O)c1ccc(OCC(=O)O)c(Cl)c1Cl

a:
Not Active
Not Active
Not Active
Not Active

====

# System: Progesterone receptor (Bos taurus, UniProt Q690N0)
# Sequence (Q690N0 whole entry): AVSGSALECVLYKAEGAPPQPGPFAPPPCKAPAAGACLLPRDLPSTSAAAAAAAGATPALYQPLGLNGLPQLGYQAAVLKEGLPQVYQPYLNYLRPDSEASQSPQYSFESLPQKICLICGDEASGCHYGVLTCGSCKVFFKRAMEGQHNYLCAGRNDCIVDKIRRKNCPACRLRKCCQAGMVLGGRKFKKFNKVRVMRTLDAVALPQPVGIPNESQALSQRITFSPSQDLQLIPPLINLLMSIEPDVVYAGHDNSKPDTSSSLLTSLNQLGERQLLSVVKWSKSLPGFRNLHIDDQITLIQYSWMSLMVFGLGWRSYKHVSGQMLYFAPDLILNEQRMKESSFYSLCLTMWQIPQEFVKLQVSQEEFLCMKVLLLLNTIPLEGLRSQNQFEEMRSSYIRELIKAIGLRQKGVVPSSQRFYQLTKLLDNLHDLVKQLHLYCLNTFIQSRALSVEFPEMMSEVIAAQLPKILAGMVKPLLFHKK
# Assay Method Text: DRUGMATRIX: Progesterone radioligand binding (ligand: [3H] R-5020)
# Format: tissue-based, Uterus
# Recorded Conditions: Not Active = under 50% inhibition at 10 µM; read-out: IC50
Value Type: IC50 (nM)
Give bare numbers, in nM.

>  <Compound>
C#C[C@]1(O)CC[C@H]2[C@@H]3CCc4cc(O)ccc4[C@H]3CC[C@@]21C

>  <System>
Progesterone receptor (Bos taurus, UniProt Q690N0)

>  <Quantitative Result>
1070

$$$$
>  <Compound>
C#C[C@]1(O)CC[C@H]2[C@@H]3CCC4=Cc5oncc5C[C@]4(C)[C@H]3CC[C@@]21C

>  <System>
Progesterone receptor (Bos taurus, UniProt Q690N0)

>  <Quantitative Result>
259

$$$$
>  <Compound>
CC(=O)O[C@]1(C(C)=O)CC[C@H]2[C@@H]3C=C(C)C4=CC(=O)CC[C@]4(C)[C@H]3CC[C@@]21C [MEGESTROL ACETATE]

>  <System>
Progesterone receptor (Bos taurus, UniProt Q690N0)

>  <Quantitative Result>
11

$$$$
>  <Compound>
CC(=O)O[C@]1(C(C)=O)CC[C@H]2[C@@H]3C=C(Cl)C4=CC(=O)[C@@H]5C[C@@H]5[C@]4(C)[C@H]3CC[C@@]21C [CYPROTERONE ACETATE]

>  <System>
Progesterone receptor (Bos taurus, UniProt Q690N0)

>  <Quantitative Result>
37

$$$$
>  <Compound>
C[C@]12CC[C@H]3[C@@H](CCC4=CC(=O)CC[C@@]43C)[C@@H]1CC[C@@H]2O

>  <System>
Progesterone receptor (Bos taurus, UniProt Q690N0)

>  <Quantitative Result>
1930

$$$$

// next item, IC50 requested
q: Enter IC50 (test system Progesterone receptor (Bos taurus, UniProt Q690N0)) for CC[C@]1(O)CC[C@H]2[C@@H]3CCC4=CCCC[C@@H]4[C@H]3CC[C@@]21C
a: 201

====

Give measured IC50 for each item. Keep answers brief.
# System: 5-hydroxytryptamine receptor 2B (Homo sapiens, UniProt P41595); note: in other assays of this panel Not Active means under 50% inhibition at 10 µM
# Sequence (P41595 whole entry): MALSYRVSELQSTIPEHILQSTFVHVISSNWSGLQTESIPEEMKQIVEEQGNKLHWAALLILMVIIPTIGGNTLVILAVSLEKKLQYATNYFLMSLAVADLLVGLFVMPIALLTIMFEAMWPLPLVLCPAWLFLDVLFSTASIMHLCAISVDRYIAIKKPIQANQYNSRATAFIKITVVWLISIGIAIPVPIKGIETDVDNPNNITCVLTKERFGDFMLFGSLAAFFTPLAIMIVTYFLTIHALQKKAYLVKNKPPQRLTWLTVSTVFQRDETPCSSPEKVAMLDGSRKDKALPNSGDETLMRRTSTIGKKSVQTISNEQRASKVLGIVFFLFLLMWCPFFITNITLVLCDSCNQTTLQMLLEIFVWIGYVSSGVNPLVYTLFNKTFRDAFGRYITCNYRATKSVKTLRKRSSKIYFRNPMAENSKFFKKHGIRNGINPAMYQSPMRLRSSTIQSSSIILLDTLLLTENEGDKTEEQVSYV
# Format: cell membranes, CHO-K1, Membrane
# Recorded Conditions: read-out: IC50
Numbers only, in nM.

Please supply IC50 for each of the following items, keeping them in order.
1. CCc1oc2ccccc2c1C(=O)c1cc(Br)c(O)c(Br)c1
2. O=C(c1ccccc1Cl)N1CCC(Cc2ccccc2)CC1
3. C[C@@H]1C[C@H]2[C@@H]3CCC4=CC(=O)C=C[C@]4(C)C3=CC[C@]2(C)[C@H]1C(=O)CN1CCN(c2cc(N3CCCC3)nc(N3CCCC3)n2)CC1

a:
1800
1510
18500

====

# System: Glucocorticoid receptor (Homo sapiens, UniProt P04150); note: in other assays of this panel Not Active means under 50% inhibition at 10 µM
# Sequence (P04150 whole entry): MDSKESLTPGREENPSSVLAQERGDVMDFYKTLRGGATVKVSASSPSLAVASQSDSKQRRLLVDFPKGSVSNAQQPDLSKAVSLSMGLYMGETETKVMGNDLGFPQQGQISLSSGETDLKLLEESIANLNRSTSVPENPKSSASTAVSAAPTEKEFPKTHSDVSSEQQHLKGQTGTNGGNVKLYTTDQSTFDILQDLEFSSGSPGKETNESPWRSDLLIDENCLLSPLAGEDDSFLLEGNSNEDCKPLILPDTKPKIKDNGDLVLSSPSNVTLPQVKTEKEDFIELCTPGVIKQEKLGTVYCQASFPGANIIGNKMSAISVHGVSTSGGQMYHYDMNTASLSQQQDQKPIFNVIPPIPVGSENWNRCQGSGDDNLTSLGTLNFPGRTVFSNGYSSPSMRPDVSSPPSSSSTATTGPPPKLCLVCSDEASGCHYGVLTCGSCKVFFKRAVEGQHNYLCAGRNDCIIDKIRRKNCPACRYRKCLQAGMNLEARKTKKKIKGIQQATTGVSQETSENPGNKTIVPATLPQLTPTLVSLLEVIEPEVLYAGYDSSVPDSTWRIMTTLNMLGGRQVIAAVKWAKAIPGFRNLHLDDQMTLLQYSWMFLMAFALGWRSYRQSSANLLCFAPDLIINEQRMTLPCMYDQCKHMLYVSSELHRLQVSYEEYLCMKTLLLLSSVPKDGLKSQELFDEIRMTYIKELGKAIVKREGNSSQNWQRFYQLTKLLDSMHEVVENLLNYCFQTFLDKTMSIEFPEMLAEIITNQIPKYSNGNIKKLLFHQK
# Recorded Conditions: hela s3
Value Type: IC50

// known answers, use as guide
>  <Compound>
CC[C@H](C)C(=O)O[C@H]1C[C@@H](C)C=C2C=C[C@H](C)[C@H](CC[C@@H]3C[C@@H](O)CC(=O)O3)[C@H]21 [LOVASTATIN]

>  <Value Type>
IC50

>  <Result>
Not Active

$$$$
>  <Compound>
CCOC(=O)C1=C(C)NC(C)=C(C(=O)OC)C1c1cccc(Cl)c1Cl (stereo not drawn) [FELODIPINE]

>  <Value Type>
IC50

>  <Result>
Not Active

$$$$
>  <Compound>
Cc1cccc(Nc2cc(Cl)nc(SCC(=O)O)n2)c1C [PIRINIXIC ACID]

>  <Value Type>
IC50

>  <Result>
Not Active

$$$$
>  <Compound>
O=c1[nH]c2ccccc2n1CCCN1CCC(n2c(=O)[nH]c3cc(Cl)ccc32)CC1 [DOMPERIDONE]

>  <Value Type>
IC50

>  <Result>
Not Active

$$$$

Go through the items and report each one's IC50.
1. CCN(CC)CC#CCOC(=O)C(O)(c1ccccc1)C1CCCCC1 (stereo not drawn) [OXYBUTYNIN]
2. COc1ccc(CN2CCNCC2)c(OC)c1OC [TRIMETAZIDINE]
3. C[C@@H](O)[C@H]1C(=O)N2C(C(=O)O)=C(S[C@@H]3CN[C@H](C(=O)N(C)C)C3)[C@H](C)[C@H]12 [MEROPENEM]

a:
1: Not Active; 2: Not Active; 3: Not Active

q: Given the compound Cc1cnc(C(=O)NCCc2ccc(S(=O)(=O)NC(=O)NC3CCCCC3)cc2)cn1 [GLIPIZIDE] , write its reported IC50.
a: Not Active
